Target: Caspase-3 (Homo sapiens, UniProt P42574)
Sequence (P42574 29-175 limits assumed): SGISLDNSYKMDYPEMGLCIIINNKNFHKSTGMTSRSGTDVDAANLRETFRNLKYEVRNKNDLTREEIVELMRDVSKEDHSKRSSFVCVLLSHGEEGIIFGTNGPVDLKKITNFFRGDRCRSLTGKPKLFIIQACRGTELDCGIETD
Sequence (P42574 176-277 limits assumed): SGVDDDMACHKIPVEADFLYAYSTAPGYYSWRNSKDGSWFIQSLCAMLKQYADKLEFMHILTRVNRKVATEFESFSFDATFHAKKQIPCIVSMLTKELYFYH
Below, each entry is listed with its recorded IC50.
Observed Property: IC50

>  <Compound>
O=C(CN1CC=CC[C@H](NC(=O)c2ccccc2)C1=O)N[C@H]1CC(=O)OC1O (stereo partly drawn)

>  <Result>
> 10 µM

$$$$
>  <Compound>
O=C(CN1CC=CC[C@H](NC(=O)c2cccc(C(F)(F)F)c2)C1=O)N[C@H]1CC(=O)OC1O (stereo partly drawn)

>  <Result>
> 10 µM

$$$$
>  <Compound>
COc1ccc(C(=O)NCC2=CC[C@H](NC(=O)c3ccc4ccccc4c3)C(=O)N(CC(=O)N[C@H]3CC(=O)OC3O)C2)cc1 (stereo partly drawn)

>  <Result>
1.13 µM

$$$$
>  <Compound>
C[C@@H](C(=O)N[C@H]1CC(=O)OC1O)N1CC=CC[C@H](NC(=O)c2ccc3ccccc3c2)C1=O (stereo partly drawn)

>  <Result>
7.51 µM

$$$$
>  <Compound>
O=C(CN1CC=CC[C@H](NC(=O)c2cc3ccccc3s2)C1=O)N[C@H]1CC(=O)OC1O (stereo partly drawn)

>  <Result>
> 10 µM

$$$$
>  <Compound>
COc1ccccc1C(=O)NCC1=CC[C@H](NC(=O)c2ccc3ccccc3c2)C(=O)N(CC(=O)N[C@H]2CC(=O)OC2O)C1 (stereo partly drawn)

>  <Result>
3.37 µM

$$$$
>  <Compound>
O=C(CN1CC=CC[C@H](NC(=O)c2cc(Cl)ccc2Cl)C1=O)N[C@H]1CC(=O)OC1O (stereo partly drawn)

>  <Result>
> 10 µM

$$$$
>  <Compound>
O=C(CN1CC(CNCc2ccccc2)=CC[C@H](NC(=O)c2ccc3ccccc3c2)C1=O)N[C@H]1CC(=O)OC1O (stereo partly drawn)

>  <Result>
> 10 µM

$$$$

---

Target: Caspase-8 (Homo sapiens, UniProt Q14790)
Sequence (Q14790 217-374 limits assumed): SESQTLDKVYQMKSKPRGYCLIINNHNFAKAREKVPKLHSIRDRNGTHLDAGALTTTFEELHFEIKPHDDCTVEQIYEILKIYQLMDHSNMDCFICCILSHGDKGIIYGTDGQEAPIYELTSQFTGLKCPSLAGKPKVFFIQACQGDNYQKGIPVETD
Sequence (Q14790 385-479 limits assumed): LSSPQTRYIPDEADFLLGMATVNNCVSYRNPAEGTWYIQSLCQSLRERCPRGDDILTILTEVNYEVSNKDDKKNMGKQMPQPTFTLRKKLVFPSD
Assay: Inhibition of caspase 8
pIC50: −log10 of the molar value.
Observed Property: pIC50

>  <Compound>
O=C(CN1CC=CC[C@H](NC(=O)c2cc(Cl)ccc2Cl)C1=O)N[C@H]1CC(=O)OC1O (stereo not given in full)

>  <Recorded Number>
6.26

$$$$
>  <Compound>
COc1cccc(C(=O)N[C@H]2CC=CCN(CC(=O)N[C@H]3CC(=O)OC3O)C2=O)c1 (stereo not given in full)

>  <Recorded Number>
5.91

$$$$
>  <Compound>
O=C(CN1CC(CSCc2ccccc2)=CC[C@H](NC(=O)c2ccc3ccccc3c2)C1=O)N[C@H]1CC(=O)OC1O (stereo not given in full)

>  <Recorded Number>
5.79

$$$$
>  <Compound>
CC1=CC[C@H](NC(=O)c2ccc3ccccc3c2)C(=O)N(CC(=O)N[C@H]2CC(=O)OC2O)C1 (stereo not given in full)

>  <Recorded Number>
5.57

$$$$
>  <Compound>
COc1ccccc1C(=O)NCC1=CC[C@H](NC(=O)c2ccc3ccccc3c2)C(=O)N(CC(=O)N[C@H]2CC(=O)OC2O)C1 (stereo not given in full)

>  <Recorded Number>
6.05

$$$$

---

pIC50: −log10 of the molar value.
# collection of pIC50 values tested on UniProtKB P29466
# Sequence (P29466 120-297 limits assumed): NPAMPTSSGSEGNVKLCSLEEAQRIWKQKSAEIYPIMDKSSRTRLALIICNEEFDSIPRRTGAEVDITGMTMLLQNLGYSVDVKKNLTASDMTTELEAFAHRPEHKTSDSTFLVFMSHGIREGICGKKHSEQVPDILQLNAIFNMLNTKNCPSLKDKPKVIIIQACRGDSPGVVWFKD
# Sequence (P29466 317-404 limits assumed): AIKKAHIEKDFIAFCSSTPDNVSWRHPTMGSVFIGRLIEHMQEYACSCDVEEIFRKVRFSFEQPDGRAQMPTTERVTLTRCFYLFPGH
Observed Property: pIC50

>  <Compound>
O=C(CN1CC(CO)=CC[C@H](NC(=O)c2ccc3ccccc3c2)C1=O)N[C@H]1CC(=O)OC1O (stereo not given in full)

>  <Recorded Number>
7.66

$$$$
>  <Compound>
O=C[C@H](CC(=O)O)NC(=O)[C@@H]1CC[C@@H]2C/C=C\C[C@H](NC(=O)c3nccc4ccccc34)C(=O)N21

>  <Recorded Number>
8.40

$$$$
>  <Compound>
O=C(CN1CC/C=C\C[C@H](NC(=O)c2nccc3ccccc23)C1=O)N[C@H]1CC(=O)OC1O (stereo not given in full)

>  <Recorded Number>
7.11

$$$$
>  <Compound>
O=C(CN1CC(CNS(=O)(=O)c2ccccc2)=CC[C@H](NC(=O)c2ccc3ccccc3c2)C1=O)N[C@H]1CC(=O)OC1O (stereo not given in full)

>  <Recorded Number>
8.52

$$$$
>  <Compound>
O=C(CN1CC=CC[C@H](NC(=O)c2cccc(Cl)c2)C1=O)N[C@H]1CC(=O)OC1O (stereo not given in full)

>  <Recorded Number>
7.54

$$$$

// provenance: ChEMBL document CHEMBL1146315
